Listing of entries alongside the reported IC50.
Target: Protein farnesyltransferase (Homo sapiens, UniProt P49354+P49356)
Experiment: Inhibition of Farnesyltransferase

input.smiles | experimental.endpoint | observed.measurement
Fc1ccc(CCN(Cc2ccc(Oc3ccccc3)cc2)Cc2c[nH]cn2)cc1 | IC50 | > 10 µM

Query compound follows.
Q: Answer with the recorded IC50 for the compound listed here: `Brc1ccc(CCN(Cc2ccc(Oc3ccccc3)cc2)Cc2c[nH]cn2)cc1`
Result: > 10 µM

---

Listing of entries alongside the reported pIC50.
Biological target: Geranylgeranyl transferase type I (Homo sapiens, UniProt P49354+P53609)
Experiment: Inhibition of Geranylgeranyl transferase type I
Please report pIC50 as the negative decimal logarithm of the molar concentration, giving only the number.

Some solved cases for reference:
molecule | pIC50
CCCCOc1ccc(S(=O)(=O)N(CCc2ccc(F)cc2)C(CC(=O)O)c2cnc[nH]2)cc1 (stereo not drawn) | 5.97
COC(=O)C(CC(C)C)NC(=O)c1ccc(NCC(N)CS)cc1-c1cccc2ccccc12 (stereo not drawn) | 6.82

Query molecule follows.
Q: Fetch value of pIC50 on Geranylgeranyl transferase type I (Homo sapiens, UniProt P49354+P53609) for O=C(O)CC(c1cnc[nH]1)N(CCc1ccc(F)cc1)Cc1ccc(-c2ccccc2)cc1 (stereo not drawn) .
Result: 5.96

---

Molecular target: Geranylgeranyl transferase type I (Homo sapiens, UniProt P49354+P53609)
Test: Inhibition of Geranylgeranyl transferase type I
experimental.endpoint: IC50 (nM)
Express it in nM; write the number only.

molecule | observed.measurement
O=C(O)CC(c1cnc[nH]1)N(CCCCc1ccccc1)Cc1ccc(Oc2ccccc2)cc1 (stereo not given) | 860
Fc1ccc(CCN(Cc2ccc(Oc3ccccc3)cc2)Cc2c[nH]cn2)cc1 | 460
O=C(O)CC(c1cnc[nH]1)N(CCc1cccs1)Cc1ccc(-c2ccccc2)cc1 (stereo not given) | 1070

Q: Answer with the recorded IC50 for the molecule listed here: `Brc1ccc(CCN(Cc2ccc(Oc3ccccc3)cc2)Cc2c[nH]cn2)cc1`
Result: 256

Q: Answer with the recorded IC50 for the molecule listed here: O=C(O)CC(c1cnc[nH]1)N(CCc1ccc(F)cc1)Cc1ccc(Oc2ccccc2)cc1 (stereo not given)
Result: 90

---

Molecular target: Geranylgeranyl transferase type I (Homo sapiens, UniProt P49354+P53609)
Assay: Percent inhibition of Geranylgeranyl transferase type I at 10 uM
Type: protein-complex assay
experimental.endpoint: inhibition (%)
Express it in %; write the number only.

Some solved cases for reference:
compound | system.tested | observed.measurement
O=C(O)CC(c1c[nH]cn1)N(CC(c1ccccc1)c1ccccc1)C1CCN(Cc2ccccc2)C1 (stereo unspecified) | Geranylgeranyl transferase type I (Homo sapiens, UniProt P49354+P53609) | 18
O=C(O)CC(NC1CCN(Cc2ccccc2)CC1)c1c[nH]cn1 (stereo unspecified) | Geranylgeranyl transferase type I (Homo sapiens, UniProt P49354+P53609) | 21
Fc1ccc(CCN(Cc2ccc(Oc3ccccc3)cc2)Cc2c[nH]cn2)cc1 | Geranylgeranyl transferase type I (Homo sapiens, UniProt P49354+P53609) | 78
Brc1ccc(CCN(Cc2ccc3ccccc3c2)Cc2c[nH]cn2)cc1 | Geranylgeranyl transferase type I (Homo sapiens, UniProt P49354+P53609) | 69
O=C(O)CC(c1c[nH]cn1)N(CCCCCCO)CC(c1ccccc1)c1ccccc1 (stereo unspecified) | Geranylgeranyl transferase type I (Homo sapiens, UniProt P49354+P53609) | 0
O=C(O)CC(c1c[nH]cn1)N(CCCc1ccccc1)Cc1cccc2ccccc12 (stereo unspecified) | Geranylgeranyl transferase type I (Homo sapiens, UniProt P49354+P53609) | 74
CCCCOc1ccc(S(=O)(=O)N(CC2CCCCC2)C(CC(=O)O)c2c[nH]cn2)cc1 (stereo unspecified) | Geranylgeranyl transferase type I (Homo sapiens, UniProt P49354+P53609) | 30
Cc1ccccc1CN(Cc1ccc(C(C)(C)C)cc1)Cc1c[nH]cn1 | Geranylgeranyl transferase type I (Homo sapiens, UniProt P49354+P53609) | 24

Q: Answer with the recorded inhibition for the compound listed here: O=C(O)CC(c1c[nH]cn1)N(CCCCCCO)Cc1c[nH]c(-c2ccccc2)n1 (stereo unspecified)
Result: 0

Q: Answer with the recorded inhibition for the compound listed here: O=C(O)CC(c1c[nH]cn1)N(CCc1cccs1)Cc1ccccn1 (stereo unspecified)
Result: 11

These measurements were taken from ChEMBL document CHEMBL1141912.
